- target.under.test: serotonin 5-HT3A receptor (Homo sapiens, UniProt P46098)
- experimental.details: Assay for 5-HT3A receptor: two-electrode voltage clamp in Xenopus oocytes, inhibition of 5-HT-induced inward current
- Assay type: cell-based
- measurement.conditions: 5-HT3A receptor expressed in Xenopus laevis oocytes; inward current induced by 5-HT (1 μM); test concentrations 0.003-100 μM; read-out: IC50 (50% inhibitory concentration)
readout.kind: IC50 (µM)

[[record]]
molecule = "O=C(NCCCN1CCOCC1)c1ccc2c(=O)n(Cc3ccc(Cl)cc3)c(=O)[nH]c2c1"
target_under_test = "serotonin 5-HT3A receptor (Homo sapiens, UniProt P46098)"
val = 1.3

[[record]]
molecule = "Cn1c(=O)[nH]c2cc(C(=O)NCCN3CCCCC3)ccc2c1=O"
target_under_test = "serotonin 5-HT3A receptor (Homo sapiens, UniProt P46098)"
val = 2.2

[[record]]
molecule = "COc1ccc(-n2c(=O)[nH]c3cc(C(=O)NCCN4CCCCC4)ccc3c2=O)cc1"
target_under_test = "serotonin 5-HT3A receptor (Homo sapiens, UniProt P46098)"
val = 1.6

[[record]]
molecule = "COc1ccc(Cn2c(=O)[nH]c3cc(C(=O)NCCN4CCCCC4)ccc3c2=O)cc1"
target_under_test = "serotonin 5-HT3A receptor (Homo sapiens, UniProt P46098)"
val = 0.8

[[record]]
molecule = "CC1CCCCN1CCNC(=O)c1ccc2c(=O)n(Cc3ccc(Cl)cc3)c(=O)[nH]c2c1 (centres unmarked)"
target_under_test = "serotonin 5-HT3A receptor (Homo sapiens, UniProt P46098)"
val = 2.8

[[record]]
molecule = "O=C(NCCN1CCCCC1)c1ccc2c(=O)n(Cc3ccccc3F)c(=O)[nH]c2c1"
target_under_test = "serotonin 5-HT3A receptor (Homo sapiens, UniProt P46098)"
val = 2.1

[[record]]
molecule = "O=C(NCCN1CCCC1)c1ccc2c(=O)n(Cc3ccc(Cl)cc3)c(=O)[nH]c2c1"
target_under_test = "serotonin 5-HT3A receptor (Homo sapiens, UniProt P46098)"
val = 7.5

[[record]]
molecule = "O=C(NCCN1CCCCC1)c1ccc2c(=O)n(-c3ccc(F)cc3)c(=O)[nH]c2c1"
target_under_test = "serotonin 5-HT3A receptor (Homo sapiens, UniProt P46098)"
val = 1.9

[[record]]
molecule = "O=C(NCCCN1CCCCC1)c1ccc2c(=O)n(Cc3ccc(Cl)cc3)c(=O)[nH]c2c1"
target_under_test = "serotonin 5-HT3A receptor (Homo sapiens, UniProt P46098)"
val = 5.7

[[record]]
molecule = "O=C(NCCN1CCCCC1)c1ccc2c(=O)n(Cc3ccc(Cl)cc3)c(=O)[nH]c2c1"
target_under_test = "serotonin 5-HT3A receptor (Homo sapiens, UniProt P46098)"
val = 3.3

[[record]]
molecule = "COc1cccc(Cn2c(=O)[nH]c3cc(C(=O)NCCN4CCCCC4)ccc3c2=O)c1"
target_under_test = "serotonin 5-HT3A receptor (Homo sapiens, UniProt P46098)"
val = 2.7

[[record]]
molecule = "CCC1CCCCN1CCCNC(=O)c1ccc2c(=O)n(Cc3ccc(Cl)cc3)c(=O)[nH]c2c1 (centres unmarked)"
target_under_test = "serotonin 5-HT3A receptor (Homo sapiens, UniProt P46098)"
val = 4.8

[[record]]
molecule = "O=C(NCCN1CCCCC1)c1ccc2c(=O)n(C3CCCCC3)c(=O)[nH]c2c1"
target_under_test = "serotonin 5-HT3A receptor (Homo sapiens, UniProt P46098)"
val = 2

[[record]]
molecule = "COc1ccccc1Cn1c(=O)[nH]c2cc(C(=O)NCCN3CCCCC3)ccc2c1=O"
target_under_test = "serotonin 5-HT3A receptor (Homo sapiens, UniProt P46098)"
val = 1.4

[[record]]
molecule = "O=C(NCCN1CCCCC1)c1ccc2c(=O)n(Cc3cccc(F)c3)c(=O)[nH]c2c1"
target_under_test = "serotonin 5-HT3A receptor (Homo sapiens, UniProt P46098)"
val = 2.4

[[record]]
molecule = "CCCn1c(=O)[nH]c2cc(C(=O)NCCN3CCCCC3)ccc2c1=O"
target_under_test = "serotonin 5-HT3A receptor (Homo sapiens, UniProt P46098)"
val = 2.2

[[record]]
molecule = "O=C(NCCN1CCCCC1)c1ccc2c(=O)n(Cc3ccc(F)cc3)c(=O)[nH]c2c1"
target_under_test = "serotonin 5-HT3A receptor (Homo sapiens, UniProt P46098)"
val = 1.9


====

- target.under.test: UniProt P46098
- Sequence (P46098 24-478): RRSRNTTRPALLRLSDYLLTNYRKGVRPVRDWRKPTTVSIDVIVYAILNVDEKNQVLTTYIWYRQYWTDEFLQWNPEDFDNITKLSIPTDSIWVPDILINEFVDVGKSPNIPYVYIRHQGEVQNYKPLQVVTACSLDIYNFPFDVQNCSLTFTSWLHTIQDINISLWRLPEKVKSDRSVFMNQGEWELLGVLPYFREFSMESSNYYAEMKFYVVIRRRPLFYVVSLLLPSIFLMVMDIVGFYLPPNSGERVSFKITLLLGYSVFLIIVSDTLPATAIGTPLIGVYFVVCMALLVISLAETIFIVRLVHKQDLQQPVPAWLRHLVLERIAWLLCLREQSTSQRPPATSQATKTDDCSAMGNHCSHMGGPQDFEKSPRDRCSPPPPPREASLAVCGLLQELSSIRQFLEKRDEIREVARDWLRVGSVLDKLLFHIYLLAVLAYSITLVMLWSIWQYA
- experimental.details: Assay for 5-HT3A receptor: two-electrode voltage clamp in Xenopus oocytes, inhibition of 5-HT-induced inward current
- Assay type: cell-based
- measurement.conditions: 5-HT3A receptor expressed in Xenopus laevis oocytes; from concentration-response curves
Decision: nH (Hill coefficient) >= 1 yields fulfilled, all other cases yield not fulfilled.

[[record]]
compound = "O=C(NCCCN1CCCCC1)c1ccc2c(=O)n(Cc3ccc(Cl)cc3)c(=O)[nH]c2c1"
target_under_test = "UniProt P46098"
class = "fulfilled"

[[record]]
compound = "COc1cccc(Cn2c(=O)[nH]c3cc(C(=O)NCCN4CCCCC4)ccc3c2=O)c1"
target_under_test = "UniProt P46098"
class = "fulfilled"

[[record]]
compound = "O=C(NCCN1CCCC1)c1ccc2c(=O)n(Cc3ccc(Cl)cc3)c(=O)[nH]c2c1"
target_under_test = "UniProt P46098"
class = "not fulfilled"

[[record]]
compound = "CC1CCCCN1CCNC(=O)c1ccc2c(=O)n(Cc3ccc(Cl)cc3)c(=O)[nH]c2c1 (centres unmarked)"
target_under_test = "UniProt P46098"
class = "fulfilled"

[[record]]
compound = "O=C(NCCN1CCCCC1)c1ccc2c(=O)n(-c3ccc(F)cc3)c(=O)[nH]c2c1"
target_under_test = "UniProt P46098"
class = "not fulfilled"

[[record]]
compound = "CN1[C@@H]2CC[C@H]1C[C@@H](OC(=O)c1cc(Cl)cc(Cl)c1)C2 [MDL72222, reference compound]"
target_under_test = "UniProt P46098"
class = "fulfilled"


====

# reported inhibition; entries follow
- target.under.test: UniProt P46098
- Sequence (P46098 24-478): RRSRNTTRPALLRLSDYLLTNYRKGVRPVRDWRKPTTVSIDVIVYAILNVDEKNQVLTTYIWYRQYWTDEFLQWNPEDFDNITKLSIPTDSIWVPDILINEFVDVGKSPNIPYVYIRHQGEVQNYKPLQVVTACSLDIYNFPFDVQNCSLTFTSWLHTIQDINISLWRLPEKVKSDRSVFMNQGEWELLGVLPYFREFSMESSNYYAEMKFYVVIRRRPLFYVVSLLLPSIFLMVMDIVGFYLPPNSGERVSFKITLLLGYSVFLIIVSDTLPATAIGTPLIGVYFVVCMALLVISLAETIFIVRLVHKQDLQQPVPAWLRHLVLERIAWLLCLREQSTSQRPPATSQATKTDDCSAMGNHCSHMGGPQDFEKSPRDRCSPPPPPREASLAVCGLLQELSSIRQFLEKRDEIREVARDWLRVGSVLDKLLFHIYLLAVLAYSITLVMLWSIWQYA
- experimental.details: Assay for 5-HT3A receptor: two-electrode voltage clamp in Xenopus oocytes, inhibition of 5-HT-induced inward current
- Type: cell-based
- measurement.conditions: 5-HT3A receptor expressed in Xenopus laevis oocytes; inward current induced by 5-HT (1 μM); from concentration-response curves; read-out: Vmax (maximum inhibition value)
readout.kind: inhibition (%)

[[record]]
molecule = "O=C(NCCN1CCCCC1)c1ccc2c(=O)n(Cc3ccccc3F)c(=O)[nH]c2c1 [Compound 4]"
unit_annotation = "%"
val = 100

[[record]]
molecule = "O=C(NCCCN1CCCCC1)c1ccc2c(=O)n(Cc3ccc(Cl)cc3)c(=O)[nH]c2c1 [Compound 19]"
unit_annotation = "%"
val = 98.2

[[record]]
molecule = "O=C(NCCN1CCCCC1)c1ccc2c(=O)n(C3CCCCC3)c(=O)[nH]c2c1 [Compound 10]"
unit_annotation = "%"
val = 98.8

[[record]]
molecule = "O=C(NCCN1CCCCC1)c1ccc2c(=O)n(Cc3ccc(F)cc3)c(=O)[nH]c2c1 [Compound 6]"
unit_annotation = "%"
val = 105

[[record]]
molecule = "COc1cccc(Cn2c(=O)[nH]c3cc(C(=O)NCCN4CCCCC4)ccc3c2=O)c1 [Compound 8]"
unit_annotation = "%"
val = 107

[[record]]
molecule = "COc1ccc(Cn2c(=O)[nH]c3cc(C(=O)NCCN4CCCCC4)ccc3c2=O)cc1 [Compound 9]"
unit_annotation = "%"
val = 96.4

[[record]]
molecule = "COc1ccccc1Cn1c(=O)[nH]c2cc(C(=O)NCCN3CCCCC3)ccc2c1=O [Compound 7]"
unit_annotation = "%"
val = 103

